# System: HOP-92 NSCLC
# EXPERIMENTAL DETAILS: NCI-60 one-dose screen, 48 h
# ASSAY SETUP: 10 µM unless noted
The panel holds about 83,000 compounds, 20% with a hit somewhere; the sample as a whole holds those more often. Calls of active or inactive are those of the source. How the source made its calls: active means growth percent below 10; inactive means the rest.
Log the outcome using a class from true for active, false for inactive

Answered examples (3):
Oc1ccc(/C=N/Nc2nc3ccccc3s2)c(O)c1 | false
CCN(CC)CCNCC(=O)Oc1ccc(/C=C/C(=O)CC(=O)/C=C/c2ccc(OC(=O)CNCCN(CC)CC)c(OC)c2)cc1OC | false
O=C(N/N=C/c1ccc(Cl)cc1Cl)c1ccccc1Nc1cccc(C(F)(F)F)c1 | true

Task: Fill in: this test's call for `O=C1NCCc2c1noc2-c1ccccc1` is ___
Output: false

Task: Outcome logged for `N=C1c2nc3n(c2C(=O)c2nc4n(c21)CCCCC4)CCCCC3` in this assay:
Output: false

Task: # outcome recorded in this test, key = `Nc1ccc(Oc2c(F)c(F)c(Oc3ccc(N)cc3)c(F)c2F)cc1`
Output: false

Task: Which outcome was assigned to `O=C(CN1CCN(c2ccc(Cl)cc2)CC1)N1CCN(c2nnc(-c3ccc(Cl)cc3)c(-c3ccc(Cl)cc3)n2)CC1` in this test?
Output: false

Task: How was `COc1cccc(/C=N/Nc2nc3ccccc3s2)c1OC` classified in this test?
Output: false

Task: Test call for this compound, please: `COC(=O)[C@H]1[C@H]2C[C@@H]3c4[nH]c5cc(OC)ccc5c4CCN3C[C@H]2C[C@@H](OC(=O)/C=C/c2cc(OC)c(OC)c(OC)c2)[C@@H]1OC`
Output: false

Task: Hi team, can someone confirm the assay call for `Cc1cc2ccccn2c1C(=O)c1ccc(C(=O)c2ccccc2)cc1` ?
Output: false

Task: Which outcome was entered for the compound `O=[N+]([O-])c1ccc(NS(=O)(=O)c2ccc(Cl)c(Cl)c2)cc1` in this test?
Output: true

* * *

# Test system: DU-145 prostate
# EXPERIMENTAL DETAILS: NCI-60 one-dose screen, 48 h
# ASSAY SETUP: 10 µM unless noted
The panel holds about 83,000 compounds, 20% with a hit somewhere; the sample as a whole holds those more often. Activity calls are given as the source filed them. Rule for the calls: active = growth percent below 10; inactive = the rest.
Tick one outcome: active, inactive

Task: Assay result, entry `C[C@H](C(=O)N[C@@H](Cc1ccc(-c2ccccc2)cc1)C(=O)NC1CC(C)(C)N(C)C(C)(C)C1)c1ccc(-c2ccccc2)c(F)c1` — outcome?
Output: active

Task: Which outcome did this test record for the compound `Nc1nc(Nc2ccccc2SSc2ccccc2Nc2nc(N)nc(C(Cl)(Cl)Cl)n2)nc(C(Cl)(Cl)Cl)n1` ?
Output: inactive

Task: Just curious, what result did `CCOC(=O)/C(=C/CC/C(C)=C/CC/C(C)=C/CCc1ccoc1)CC(=O)N1CCCCC1` get here?
Output: inactive

* * *

# Tested on: A549/ATCC NSCLC
# EXPERIMENTAL DETAILS: NCI-60 one-dose screen, 48 h
# ASSAY SETUP: 10 µM unless noted
Compounds without any hit were thinned out: in the full panel of roughly 83,000, 20% have a hit. Calls of active or inactive are those of the source. Rule for the calls: active = growth percent below 10; inactive = the rest.
Write down one outcome, taken from Yes = active, No = inactive

CC(=O)N1N=C(c2ccc(Cl)cc2)CC1c1c(C)nn(-c2ccccc2)c1N(C)Cc1ccccc1 (centres undefined) | No
COc1ccc(C2CC(c3ccc4c(c3)OCO4)=NN2C=O)cc1 (centres undefined) | No
Cc1sc2nc(N3CCCCC3)[nH]c(=O)c2c1C | No

Task: Dear all, I need the recorded test outcome for `COC(=O)[C@H](Cc1cn(C)cn1)NC(=O)[C@@H](NC(=O)Nc1cc(C(F)(F)F)cc(C(F)(F)F)c1)C(C)C` , thank you.
Output: Yes

Task: Could you check what this test reported for `COc1cc(-c2nnc(-c3nc(-c4cc(OC)c(OC)c(OC)c4)n4ccccc34)o2)ccc1N` ?
Output: No

Task: Just curious, what result did `COc1ccc2cc(C3=CC(=O)CCC3)ccc2c1` get here?
Output: No

Task: # fetch the recorded call for `CN(C)CCC(=O)Nc1ccc(-n2cc(-c3cccc(NC(=S)Nc4cccc(-c5cn(-c6ccc(NC(=O)CCN(C)C)cc6)nn5)c4)c3)nn2)cc1` here
Output: No

Task: Called result for `CCOc1cc(/C=C/C(=O)C(C(=O)/C=C/c2ccc(OC(=O)CNc3nnc(C)s3)c(OCC)c2)C(=O)CNc2nnc(C)s2)ccc1OC(=O)CNc1nnc(C)s1`
Output: Yes

Task: Could you check what this test reported for `Cc1sc2nc(NCCc3cccs3)[nH]c(=O)c2c1C` ?
Output: No

* * *

Reported growth values follow for various molecules
# Test system: SK-OV-3 ovarian
# EXPERIMENTAL DETAILS: NCI-60 one-dose screen, 48 h (100 = growth as untreated, 0 = no growth, -100 = all killed)
# ASSAY SETUP: 10 µM unless noted
Compounds without any hit were thinned out: in the full panel of roughly 83,000, 20% have a hit. Active and inactive are the calls of the source. Rule for the calls: active = growth percent below 10; inactive = the rest.

Some solved entries appear below for comparison.
CCOC(=O)C1=CCC(n2cc(C)c(=O)[nH]c2=O)O1 (stereo unspecified) | 109% (inactive)
Nc1nc2c(c(=O)[nH]1)C1(C(=O)Nc3ccccc31)c1c(nc(N)[nH]c1=O)N2 | 108% (inactive)
COc1ccc(C2CC(c3ccc(Nc4ccnc5cc(Cl)ccc45)cc3)=NN2C(C)=O)cc1 (stereo unspecified) | 101% (inactive)
COc1cc(C(=O)c2cc3c(cc2C)OCO3)cc(OC)c1OC | 11.1% (inactive)
Oc1c(Cl)cc(Oc2cc(Cl)c(O)c(CN3CCOCC3)c2)cc1CN1CCOCC1 | 101% (inactive)

Task: Requested read-out: growth. Entry: `CCOc1cc(CCNS(=O)(=O)c2ccc(C)cc2)c(C(C)=O)cc1OCC`
Output: 96.7% [100 µM] (inactive)

* * *

# System: SK-OV-3 ovarian
# EXPERIMENTAL DETAILS: NCI-60 one-dose screen, 48 h (100 = growth as untreated, 0 = no growth, -100 = all killed)
# ASSAY SETUP: 10 µM unless noted
This is part of a sample that, as a whole, favours compounds with a hit. Of some 83,000 tested, about 20% had one in any assay. Active and inactive are the calls of the source. Rule for the calls: active = growth percent below 10; inactive = the rest.
OBSERVATION TYPE: growth

Example cases with answers are listed next.
O=C1/C=C/[C@@H](O)[C@@H]2C[C@@H](O)C[C@H]2/C=C/CCC[C@H](CO)O1 | 50.7% (inactive)
CCCCCCCSc1ncnc2[nH]ncc12 | 101% (inactive)

Query molecule follows.
Task: Returns the measured growth for the input molecule. Input: `COc1ccc2c(c1)sc1nc(-c3ccc(Br)cc3)cn12`
Output: 117% (inactive)

* * *

# System: NCI/ADR-RES ovarian
# EXPERIMENTAL DETAILS: NCI-60 one-dose screen, 48 h (100 = growth as untreated, 0 = no growth, -100 = all killed)
# ASSAY SETUP: 10 µM unless noted
The panel holds about 83,000 compounds, 20% with a hit somewhere; the sample as a whole holds those more often. The source made the active and inactive calls. Rule for the calls: active = growth percent below 10; inactive = the rest.
OBSERVATION TYPE: growth

COc1cc2c(cc1OC)C(CC1(O)CCCCC1)N(S(=O)(=O)c1ccc(C)cc1)CC2 (stereo unspecified) | 34.5% [100 µM] (inactive)

Task: Would you mind telling me what growth value was observed for `CC(=O)Nc1c(Cl)cc2c(c1Cl)Cc1ccccc1-2` ?
Output: 103% (inactive)

* * *

# Tested on: OVCAR-4 ovarian
# EXPERIMENTAL DETAILS: NCI-60 one-dose screen, 48 h
# ASSAY SETUP: 10 µM unless noted
This is part of a sample that, as a whole, favours compounds with a hit. Of some 83,000 tested, about 20% had one in any assay. Active and inactive are the calls of the source. The calls were made as follows: active = growth percent below 10; inactive = the rest.
Select the correct class. Options are Yes (active), No (inactive) and nothing else.

Example entries and their recorded answers appear below.
O=C(COc1cccc(/C=C2\Cc3ccccc3C2=O)c1)c1ccc(Cl)cc1 | No
CCOC(=O)CCN(c1c(Cl)ssc1=O)C(C)C | No
Cc1ccc2nc3c(n2c1)C(=O)C(=O)c1ccccc1-3 | Yes

Task: I would be grateful if you could indicate the recorded call for `CCC(=O)Nc1cc2c(cc1Cl)-c1ccccc1C2` .
Output: No

Task: Query: recorded result category for `CCOC(=O)Nc1cc(-c2ccc(C)c(NS(C)(=O)=O)c2)nn2c(C)nnc12` in this test
Output: No

Task: Which outcome was entered for the molecule `CC(C)CNc1nc(N=[N+]=[N-])nc(NCC(C)C)n1` in this test?
Output: No

Task: Which result was noted for this molecule in the test: OC(c1ccccc1)C(NCc1ccccc1)c1ccccc1 (stereo unspecified)
Output: No

Task: Recorded test call requested for `CCOc1cc(/C=C/C(=O)C(C(=O)/C=C/c2ccc(OC(=O)CNc3nc4ccccc4[nH]3)c(OCC)c2)C(=O)CNc2nc3ccccc3[nH]2)ccc1OC(=O)CNc1nc2ccccc2[nH]1`
Output: No
